Values were extracted from patent US10195222B2.

System: MT-2 cells (human T cell leukemia)
Assay: Cytotoxicity in MT-2 cells (flow cytometry, propidium iodide)
Type: cell-based
Conditions: 72 hrs, Table 8; read-out: CC50 (MT-2 cells)
Description: Method of cytotoxicity determination. MT-2 cells were incubated with drug for 72 hrs and harvested. Flow count beads (Beckman Coulter, Miami, Fla.) were added to the cell suspension followed by propidium iodide staining and analysis using flow cytometer and the 50% cytotoxic concentration (CC50) was calculated from the cell counts and viability. Method cytotoxicity determination. MT-2 cells were incubated with drug for 72 hrs and harvested. […]
quantity: CC50

Consider the molecule CCCCCCCCCCCCCCCCCCOCCOP(=O)(COCCn1cnc2c(=O)[nH]c(N)nc21)OCc1ccccc1 (stereo not shown) [Bn-ODE-PMEG slow] and give its measured CC50.
< 10 nM
